SYSTEM UNDER TEST: Cannabinoid receptor 1 (Homo sapiens, UniProt P21554)
Sequence (P21554 whole entry): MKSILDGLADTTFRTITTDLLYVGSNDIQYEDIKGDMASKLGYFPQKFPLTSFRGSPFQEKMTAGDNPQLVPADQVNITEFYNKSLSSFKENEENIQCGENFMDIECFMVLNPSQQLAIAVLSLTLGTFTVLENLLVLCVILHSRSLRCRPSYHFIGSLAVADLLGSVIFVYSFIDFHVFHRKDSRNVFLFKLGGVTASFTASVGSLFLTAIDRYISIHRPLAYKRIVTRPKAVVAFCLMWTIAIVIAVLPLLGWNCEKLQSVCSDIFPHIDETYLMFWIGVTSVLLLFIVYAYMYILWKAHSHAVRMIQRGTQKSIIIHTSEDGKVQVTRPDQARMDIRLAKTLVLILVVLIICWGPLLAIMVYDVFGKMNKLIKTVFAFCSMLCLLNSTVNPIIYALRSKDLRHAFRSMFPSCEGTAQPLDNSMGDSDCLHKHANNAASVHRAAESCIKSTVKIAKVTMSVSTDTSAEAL
ASSAY NOTES: Antagonistic activity towards cannabinoid receptor 1 expressed as [3H]Arachidonic acid release in CHO cells
Assay type: functional, cell-based
CONDITIONS: read-out: pA2 (converted)
OUTCOME MEASURE: Kb (nM)

[
  {
    "COMPOUND": "C/N=C(\\NS(=O)(=O)c1ccccc1Cl)N1CC(c2ccccc2)C(c2ccc(Cl)cc2)=N1 (centres undefined)",
    "UNITS OF MEASURE": "nM",
    "REPORTED RESULT": 5.01
  },
  {
    "COMPOUND": "C/N=C(\\NS(=O)(=O)c1ccc2ccccc2c1)N1CC(c2ccccc2)C(c2ccc(Cl)cc2)=N1 (centres undefined)",
    "UNITS OF MEASURE": "nM",
    "REPORTED RESULT": 3.16
  },
  {
    "COMPOUND": "CN=C(NS(=O)(=O)c1ccc(OC)cc1)N1CC(c2ccccc2)C(c2ccc(Cl)cc2)=N1 (centres undefined)",
    "UNITS OF MEASURE": "nM",
    "REPORTED RESULT": 10
  },
  {
    "COMPOUND": "CNC(=NS(=O)(=O)c1cccc(Cl)c1)N1CC(c2ccccc2)C(c2ccc(Cl)cc2)=N1 (centres undefined)",
    "UNITS OF MEASURE": "nM",
    "REPORTED RESULT": 2.51
  }
]

---

SYSTEM UNDER TEST: Cannabinoid receptor 1 (Homo sapiens, UniProt P21554)
pKi: −log10 of the molar value.
pKi below 7 gives rule not met; pKi at or above it gives rule met.

[
  {
    "COMPOUND": "CN(C)/C(=N\\S(=O)(=O)c1ccc(Cl)cc1)N1CC(c2ccccc2)C(c2ccc(Cl)cc2)=N1 (centres undefined)",
    "SYSTEM UNDER TEST": "Cannabinoid receptor 1 (Homo sapiens, UniProt P21554)",
    "CLASSIFICATION": "rule not met"
  },
  {
    "COMPOUND": "CN=C(NS(=O)(=O)c1ccc(OC)cc1)N1CC(c2ccccc2)C(c2ccc(Cl)cc2)=N1 (centres undefined)",
    "SYSTEM UNDER TEST": "Cannabinoid receptor 1 (Homo sapiens, UniProt P21554)",
    "CLASSIFICATION": "rule met"
  },
  {
    "COMPOUND": "C/N=C(\\NS(=O)(=O)c1ccc2ccccc2c1)N1CC(c2ccccc2)C(c2ccc(Cl)cc2)=N1 (centres undefined)",
    "SYSTEM UNDER TEST": "Cannabinoid receptor 1 (Homo sapiens, UniProt P21554)",
    "CLASSIFICATION": "rule met"
  },
  {
    "COMPOUND": "Cc1ccc(S(=O)(=O)NC(=N)N2CC(c3ccccc3)C(c3ccc(Cl)cc3)=N2)cc1 (centres undefined)",
    "SYSTEM UNDER TEST": "Cannabinoid receptor 1 (Homo sapiens, UniProt P21554)",
    "CLASSIFICATION": "rule not met"
  },
  {
    "COMPOUND": "C/N=C(\\NS(=O)(=O)c1ccc(Cl)cc1)N1CC(c2ccccc2)C(c2ccc(F)cc2)=N1 (centres undefined)",
    "SYSTEM UNDER TEST": "Cannabinoid receptor 1 (Homo sapiens, UniProt P21554)",
    "CLASSIFICATION": "rule not met"
  },
  {
    "COMPOUND": "N=C(NS(=O)(=O)c1ccc(F)cc1)N1CC(c2ccccc2)C(c2ccc(Cl)cc2)=N1 (centres undefined)",
    "SYSTEM UNDER TEST": "Cannabinoid receptor 1 (Homo sapiens, UniProt P21554)",
    "CLASSIFICATION": "rule met"
  },
  {
    "COMPOUND": "C/N=C(\\NS(=O)(=O)c1ccccc1)N1CC(c2ccccc2)C(c2ccc(Cl)cc2)=N1 (centres undefined)",
    "SYSTEM UNDER TEST": "Cannabinoid receptor 1 (Homo sapiens, UniProt P21554)",
    "CLASSIFICATION": "rule not met"
  },
  {
    "COMPOUND": "C/N=C(\\NS(=O)(=O)c1cccc(C(F)(F)F)c1)N1CC(c2ccccc2)C(c2ccc(Cl)cc2)=N1 (centres undefined)",
    "SYSTEM UNDER TEST": "Cannabinoid receptor 1 (Homo sapiens, UniProt P21554)",
    "CLASSIFICATION": "rule met"
  },
  {
    "COMPOUND": "CN(C)/C(=N\\S(=O)(=O)c1ccc(F)cc1)N1CC(c2ccccc2)C(c2ccc(Cl)cc2)=N1 (centres undefined)",
    "SYSTEM UNDER TEST": "Cannabinoid receptor 1 (Homo sapiens, UniProt P21554)",
    "CLASSIFICATION": "rule not met"
  }
]

From: ChEMBL document CHEMBL1148395
